Quick record: IC50, PKCa (Homo sapiens).

Cc1nc(C)c(-c2ccnc(Nc3cccc([N+](=O)[O-])c3)n2)s1 [Compound 12] = > 20 µM

Let us move to another entry and its IC50.
API: value(readout= IC50, system= PKCa (Homo sapiens), query= Cc1nc(C)c(-c2ccnc(Nc3ccc(Cl)cc3)n2)s1 [Compound 6] )
> 20 µM

* * *

Below are compounds with their pIC50 as measured on UniProt Q16539.
Sequence (Q16539 whole entry, species assumed): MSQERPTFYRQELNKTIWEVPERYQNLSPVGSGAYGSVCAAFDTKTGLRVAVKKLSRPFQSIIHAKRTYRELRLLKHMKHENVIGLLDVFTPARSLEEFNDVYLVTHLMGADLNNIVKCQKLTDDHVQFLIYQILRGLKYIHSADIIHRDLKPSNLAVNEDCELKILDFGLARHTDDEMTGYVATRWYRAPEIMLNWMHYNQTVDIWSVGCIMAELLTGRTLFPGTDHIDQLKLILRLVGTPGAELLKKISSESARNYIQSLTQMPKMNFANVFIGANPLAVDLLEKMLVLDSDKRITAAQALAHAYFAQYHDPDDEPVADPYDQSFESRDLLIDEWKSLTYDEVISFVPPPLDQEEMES
pIC50: −log10 of the molar value.

Record excerpt, results attached:
Cc1nc(C)c(-c2ccnc(Nc3cccc([N+](=O)[O-])c3)n2)s1 = < 4.70
Cc1nc(C)c(-c2ccnc(Nc3ccc(F)cc3)n2)s1 = < 4.70

The record that follows has no pIC50 shown yet.
# pIC50 lookup, item Cc1nc(C)c(-c2ccnc(Nc3ccc(Cl)cc3)n2)s1
< 4.70

* * *

- Tested on: HeLa
- procedureSummary: 72-h MTT cytotoxicity assay, HeLa
- Type: cell-based
- assayContext: Homo sapiens, read-out: 72-h Cytotoxicity IC 50 HeLa, Table 3, 72-h MTT
recordedEndpoint: IC50 (µM)
Unit µM implied. Number only.

Cc1nc(C)c(-c2ccnc(Nc3cccc([N+](=O)[O-])c3)n2)s1 = 1.2

May I ask what IC50 has been recorded for Cc1nc(C)c(-c2ccnc(Nc3ccc(F)cc3)n2)s1 ?
3.2

* * *

- targetEntity: CDK2/cyclin E (Homo sapiens)
- Construct: His; made in house; host or cells: Sf9 insect cells (baculovirus)
- procedureSummary: CDK2/cyclin E kinase assay (GST-Rb phosphorylation)
- Format: biochemical
- assayContext: Kinase assay IC50 CDK2/cyclin E, Table 1
recordedEndpoint: pIC50
Scale: negative log10 of molar concentration, which is what pIC50 denotes.

Observed pIC50 on CDK2/cyclin E (Homo sapiens) for Cc1nc(C)c(-c2ccnc(Nc3ccc(Cl)cc3)n2)s1 , please.
5.05

* * *

- Test system: A549
- procedureSummary: 72-h MTT cytotoxicity assay, A549
- Format: cell-based, human
- assayContext: Homo sapiens, A549, read-out: A549
- From the text: Selected compounds from the above examples were subjected to a standard cellular proliferation assay using a range of different human tumour cell lines. […]
recordedEndpoint: IC50 (nM)
All answers are understood in nM, so give the number only.

Test system A549; read-out IC50; what value for CNc1nc(C)c(-c2ccnc(Nc3ccc(O)cc3)n2)s1 [Compound 63] ?
800

* * *

- targetEntity: CDK2/cyclin E (Homo sapiens)
- Construct: His; made in house; host or cells: Sf9 insect cells (baculovirus)
- procedureSummary: CDK2/cyclin E kinase assay (GST-Rb phosphorylation);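 also: enzyme source: His-tagged CDK2/cyclin E co-expressed in Sf9 insect cells via baculovirus, then purified by metal-chelate chromatography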
- Type: biochemical
- assayContext: Table 2, further results for CDK2/cyclin E inhibition; read-out: CDK2/cyclin E
pIC50: −log10 of the molar value.
recordedEndpoint: pIC50

Guide cases for pIC50, answers given:
CNc1nc(C)c(-c2ccnc(Nc3cccc(C(F)(F)F)c3)n2)s1 [Compound 90] = 6.70
Cc1nc(C)c(-c2ccnc(Nc3cccc(Br)c3)n2)s1 [Compound 30] = 6.03
COc1ccc(Nc2nccc(-c3sc(C)nc3C)n2)cc1 [Compound 39] = 6.66

A = Cc1nc(C)c(-c2ccnc(Nc3ccc(I)cc3F)n2)s1 [Compound 94]
B = COC(=O)c1ccc(Nc2nccc(-c3sc(C)nc3C)n2)cc1 [Compound 50]
C = O=[N+]([O-])c1cccc(Nc2nccc(-c3cc(Cl)sc3Cl)n2)c1 [Compound 9]
D = Cc1nc(C)c(-c2ccnc(Nc3cc(F)cc(F)c3)n2)s1 [Compound 23]
Put the items in order so that reported pIC50 rises from first to last. Form entry: labels listed in requested order.
C, D, A, B

I = CNc1nc(C)c(-c2ccnc(Nc3cccc(F)c3)n2)s1 [Compound 103]
II = CNc1nc(C)c(-c2ccnc(Nc3cccc(OC)c3)n2)s1 [Compound 88]
Response body: label of entry with the larger pIC50; valid values I , II . // return label of chosen record
II
(II: 6.70, I: 5.92)

Measured values drawn from patent US6699854B2 for this set.
